# System: UACC-257 melanoma
# assay: NCI tumour cell line growth inhibition, 48 h
propertyName: TGI (µM)
Answers are plain numbers, in µM.

Provide only the value of recorded TGI for O=[N+]([O-])c1cccc([N+](=O)[O-])c1Cl
23.6

***
Provide only the value of recorded TGI for CCCCCCCCCCC[N+]1(Cc2ccccc2)CC2CCN(Cc3ccccc3)CC2C1 (stereo not drawn)
1.14

---

# Test system: NCI-H522 lung
# assay: NCI tumour cell line growth inhibition, 48 h
propertyName: TGI

Use these answered entries as a reference point.
Specify TGI for CC(=O)OC[C@H]1O[C@@H](n2ccc(=O)[nH]c2=O)[C@H](OC(C)=O)[C@@H]1OC(C)=O , system NCI-H522 lung.
> 100 µM

Specify TGI for CC(C)(C)N1CCC1C(N)=O (centres undefined) , system NCI-H522 lung.
> 100 µM

Specify TGI for CCCCN(CCCC)C1=Nc2ccccc2-n2c(nnc2C(=O)OCC)C1 , system NCI-H522 lung.
> 100 µM

***
Specify TGI for COC(C[C@H]1CCCC[C@]1(O)/C(=C\CO[Si](C(C)C)(C(C)C)C(C)C)Sc1ccccc1)OC , system NCI-H522 lung.
39.6 µM

---

Answer each item with its documented TGI.
# Tested on: SK-MEL-2 melanoma
# assay: NCI tumour cell line growth inhibition, 48 h
*1 amine or outer side, *2 acyl side, *3 side chain or, on linkers, in order; H or OH if unused. Where a SMILES comes first, the peptide text is derived from it. Bridges are numbered along the chain shown (N, C = ends). Roman numbers before positions name the chains, in order. [ ]: non-standard residue; d: D form. Actinocin(9to1) = Cc1c2oc3c(C)ccc(C(=O)[*:1])c3nc-2c(C(=O)[*:2])c(N)c1=O; NMeV = CN[CH](C(=O)O)C(C)C; Sar = CNCC(=O)O

Use these answered entries as a reference point.
Provide only the value of recorded TGI for Cc1c2oc3c(C)ccc(C(=O)NC4C(=O)NC(Cc5ccc(O)cc5)C(=O)N5CCCC5C(=O)N(C)CC(=O)N(C)C(C(C)C)C(=O)OC4C)c3nc-2c(C(=O)NC2C(=O)NC(Cc3ccc(O)cc3)C(=O)N3CCCC3C(=O)N(C)CC(=O)N(C)C(C(C)C)C(=O)OC2C)c(N)c1=O (centres undefined) (I: TYP[Sar][NMeV] / II: TYP[Sar][NMeV]; ester I:1-I:C, II:1-II:C; linker I:N-II:N via Actinocin(9to1); configuration not given here)
> 43.6 µM

Provide only the value of recorded TGI for O=C1NC(=S)NC(=O)C1=Cc1cc2c(cc1[N+](=O)[O-])OCO2
> 100 µM

Provide only the value of recorded TGI for CN(C)CCCn1c2c(c3cnccc3c1=O)C(=O)c1ccccc1-2
3.6 µM

Provide only the value of recorded TGI for O=C1Sc2cc3ccccc3cc2C(=O)Sc2cc3ccccc3cc21
> 66.5 µM

Provide only the value of recorded TGI for COc1ccc(/C=N/N=C(\N)NO)cc1OC
> 100 µM

Provide each entry's TGI from the list below.
1. CC(O)/C=C/C(CCC(C)CO)C(C)C (centres undefined)
2. CC(=O)NC1C(OCc2ccccc2)OC(CO)C(O)C1OCC(=O)N[C@@H](C)C(=O)N[C@H](CCC(=O)NCCCCNc1c2ccccc2nc2cccc([N+](=O)[O-])c12)C(N)=O (some centres undefined)
3. Cc1cn([C@@H]2C[C@](C)(CO)N(C)O2)c(=O)[nH]c1=O

> 100 µM
5 µM
> 100 µM

Provide only the value of recorded TGI for CCOP(=O)(OCC)C(NC(c1ccccc1)c1ccccc1)c1ccccc1 (centres undefined)
52.2 µM

---

Answer each item with its documented TGI.
# Tested on: HCT-116 colon
# assay: NCI tumour cell line growth inhibition, 48 h

Use these answered entries as a reference point.
Provide only the value of recorded TGI for C/C(O)=C(\N=O)C(=O)NCCc1ccccc1
> 70.1 µM

Provide only the value of recorded TGI for O=c1cc(C(F)(F)F)c2cc3c(cc2o1)NCCC3
> 100 µM

Provide only the value of recorded TGI for NC(=O)CC[C@H]1C(=O)N=C(N)N1C(=O)OCc1ccccc1
> 100 µM

Provide only the value of recorded TGI for O=Cc1c(-c2cc(O)ccc2O)nc2sccn12
27.3 µM

Provide only the value of recorded TGI for CCCCCCCCCCC[N+]1(Cc2ccccc2)CC2CCN(Cc3ccccc3)CC2C1 (stereo unspecified)
1.45 µM

Provide only the value of recorded TGI for CC12CCC3C(CC=C4CC(O)CCC43C)C1C/C(=C\N1CCCC1)C2=O (stereo unspecified)
> 100 µM

Provide only the value of recorded TGI for CCOC(=O)/C(C1=N[C@H](C(=O)OCC)CS1)=C(\O)c1ccccc1
> 100 µM

Provide only the value of recorded TGI for O=C(O)c1ccc2c(c1)Cc1cc([N+](=O)[O-])ccc1-2
> 100 µM

Provide each entry's TGI from the list below.
1. CCCC(CC)c1cc(O)c(O)cc1C(CC)CCC (stereo unspecified)
2. COc1ccc(C(=O)/C=C/c2ccc(OCCCOc3ccc(/C=C/C(=O)c4ccc(OC)c(OC)c4)cc3)cc2)cc1OC
3. CSc1nc(NC2OCC(OC(C)=O)C(OC(C)=O)C2OC(C)=O)c2c(OC(C)=O)c(C)c(=O)oc2n1 (stereo unspecified)

> 10 µM
> 100 µM
> 100 µM

---

# System: M14 melanoma
# assay: NCI tumour cell line growth inhibition, 48 h; in the data active = GI50 below about 0.43 µM; inactive = the rest
Return exactly one item of 1 for active, -1 for inactive

# outcome recorded in this test, key = CC12CCC3C(CC=C4CC(O)CCC43C)C1C/C(=C\N1CCCC1)C2=O (centres undefined)
-1

# outcome recorded in this test, key = OCCCCC#Cc1ccccc1C#Cc1ccccc1
-1

# outcome recorded in this test, key = N#Cc1c(C(=O)c2ccccc2)cnn1-c1ccccc1
-1

# outcome recorded in this test, key = COc1c(O)c2c(c3cc(C(=O)N4CCc5c4c(O)c(OC)c4[nH]c(C(=O)N6CC7CC78C6=CC(=O)c6[nH]cc(C)c68)cc54)[nH]c13)CCN2C(N)=O (centres undefined)
1

# outcome recorded in this test, key = CN(C)CCCn1c2c(c3cnccc3c1=O)C(=O)c1ccccc1-2
1

# outcome recorded in this test, key = CC(=O)OC[C@H]1O[C@@H](n2ccc(=O)[nH]c2=O)[C@H](OC(C)=O)[C@@H]1OC(C)=O
-1

***
# outcome recorded in this test, key = C=C1C(=O)O[C@H]2[C@H]1CC/C(COC(=O)NCc1cc3ccccc3[nH]1)=C\CC[C@@]1(C)O[C@@H]21
-1

# outcome recorded in this test, key = COCCn1cc(-c2csc(-c3c[nH]c4ccccc34)n2)c2cccnc21
-1

# outcome recorded in this test, key = c1ccc(Cc2nc3ccc(Nc4ncnc5ccccc45)cc3[nH]2)cc1
-1

---

Answer each item with its documented TGI.
# Test system: HOP-62 NSCLC
# assay: NCI tumour cell line growth inhibition, 48 h

Use these answered entries as a reference point.
Specify TGI for COC(=O)C(CCS(=O)(=O)CC(=O)C(=O)Nc1cccc(C(C)=O)c1)C(=O)OC , system HOP-62 NSCLC.
> 100 µM

Specify TGI for O=P1(N(CCCl)CCCl)NCCCO1 (configuration not stated) , system HOP-62 NSCLC.
> 250 µM

Specify TGI for CCCOC1OC(CS(=O)(=O)O)C(OC(C)=O)C(OC(C)=O)C1OC(C)=O (configuration not stated) , system HOP-62 NSCLC.
> 100 µM

Specify TGI for CCn1c(O)c(C(=O)NC(C)c2ccc([N+](=O)[O-])cc2)c(=O)n(CC)c1=S (configuration not stated) , system HOP-62 NSCLC.
6.54 µM

Specify TGI for Oc1ccc(O)c(Sc2nnc(CCCCCCCCc3nnc(Sc4cc(O)ccc4O)o3)o2)c1 , system HOP-62 NSCLC.
> 100 µM

Provide each entry's TGI from the list below.
1. CC(=O)OCC1(CNc2nc(N)ncc2C#N)CC(CCc2ccccc2)C1 (configuration not stated)
2. COC(=O)c1c(C)cccc1C1CN=NC12Cc1cccc(C)c1C2=O (configuration not stated)

1: > 100 µM; 2: > 100 µM

---

# Tested on: A549 NSCLC
# assay: NCI tumour cell line growth inhibition, 48 h
Where a SMILES comes first, the peptide text is derived from it.
propertyName: TGI

Use these answered entries as a reference point.
Provide only the value of recorded TGI for C#Cc1cccc(Nc2ncnc3cc(OCCOC)c(OCCOC)cc23)c1
> 100 µM

Provide only the value of recorded TGI for CCC(C)C(NC(=O)C1CCCN1)C(=O)NC(C(=O)NCC(=O)NC(CC(N)=O)C(=O)NC(CC(C)C)C(=O)NC(CC(C)C)C(=O)NC(CCCCN)C(N)=O)C(C)C (stereo not given) (H-PIVGNLLK-NH2; configuration not given here)
> 75 µM

Provide only the value of recorded TGI for CC(=O)NC1C(OCc2ccccc2)OC(CO)C(O)C1OCC(=O)N[C@@H](C)C(=O)N[C@H](CCC(=O)NCCCCNc1c2ccccc2nc2cccc([N+](=O)[O-])c12)C(N)=O (stereo not given in full)
> 100 µM

Provide each entry's TGI from the list below.
1. COc1ccc(OC)c(-c2cn3c(n2)sc2ccccc23)c1
2. Oc1ccc(O)c(Sc2nnc(CCCCCCCCc3nnc(Sc4cc(O)ccc4O)o3)o2)c1
3. CCN(Cc1cccc(OC)c1)c1ccc(CO)c(Cl)c1
4. COc1ccc2[nH]c(-c3ccccn3)cc(=O)c2c1
5. O=C(O)c1ccc2c(c1)Cc1cc([N+](=O)[O-])ccc1-2

1: > 100 µM; 2: > 100 µM; 3: 27.7 µM; 4: > 100 µM; 5: > 100 µM

Provide each entry's TGI from the list below.
1. Clc1ccc(Cl)c2[s+]snc12
2. CCCCNC(=S)Nc1nc(C(=O)NNC(=S)NCc2ccccc2)cs1

> 100 µM
> 100 µM

The origin of these recorded values is PubChem BioAssay (NCI).
